Biological target: MGDG synthase in isolated spinach chloroplast envelope membranes (Spinacia oleracea, UniProt Q9SM44)
Construct: envelope membranes purified from the lysate by sucrose centrifugation gradient; from tissue; host or cells: envelope membranes of chloroplasts from spinach leaves
Sequence (Q9SM44 99-522): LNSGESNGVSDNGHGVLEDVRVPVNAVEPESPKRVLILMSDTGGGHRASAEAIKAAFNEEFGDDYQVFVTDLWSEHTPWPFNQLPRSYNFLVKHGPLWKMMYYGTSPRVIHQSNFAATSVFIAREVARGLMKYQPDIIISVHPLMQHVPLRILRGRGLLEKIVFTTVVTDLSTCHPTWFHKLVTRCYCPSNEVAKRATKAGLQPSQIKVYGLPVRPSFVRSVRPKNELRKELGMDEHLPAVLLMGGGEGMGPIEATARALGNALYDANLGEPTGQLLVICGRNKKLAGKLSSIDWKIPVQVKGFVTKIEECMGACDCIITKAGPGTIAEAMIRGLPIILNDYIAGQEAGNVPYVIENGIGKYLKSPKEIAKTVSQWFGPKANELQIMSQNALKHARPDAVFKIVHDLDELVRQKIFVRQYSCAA
Test: MGDG synthase activity in envelope membrane fractions isolated from spinach chloroplasts
Format: biochemical
Details: Table 1, obtained in the same manner as FIG. 4; read-out: Inhibitory effect on MGDG synthesis in isolated spinach chloroplast envelope membranes
Counter-ions that a name gives are not always drawn.
Recorded IC50 values for a group of molecules are listed next.
measuredQuantity: IC50 (µM)

>>> df
                                   molecule  measuredquantity  recordedmeasurement
0  O=C(OCCCN(Cc1ccccc1)Cc1ccccn1)N1CCC(n2c(=O)[nH]c3ccccc32)CC1 [Compound 59, hydrochloride]              IC50                   15
1  CC(C)C[C@@H](COC(=O)N1CCC(n2c(=O)[nH]c3ccccc32)CC1)NCc1ccccc1              IC50                   45
2  O=C(OC[C@H](c1ccccc1)N(Cc1ccccc1)Cc1ccccc1)N1CCC(n2c(=O)[nH]c3ccccc32)CC1              IC50                   40
3  O=C(OCCN(Cc1ccccc1)Cc1cccc(OCc2ccccc2)c1)N1CCC(n2c(=O)[nH]c3ccccc32)CC1              IC50                    8
4  C[C@@H](COC(=O)N1CCC(n2c(=O)[nH]c3ccccc32)C1)N(Cc1ccccc1)Cc1ccccc1 (stereo partly shown)              IC50                   50
5  CC(C)(C)OC(=O)N(CCOC(=O)N1CCC(n2c(=O)[nH]c3ccccc32)CC1)Cc1ccccc1              IC50                   12
6  Cn1c(=O)n(C2CCN(C(=O)OC[C@H](Cc3ccccc3)N(Cc3ccccc3)Cc3ccccc3)CC2)c2ccccc21              IC50                   75

---

Molecular target: MGDG synthase in isolated spinach chloroplast envelope membranes (Spinacia oleracea, UniProt Q9SM44)
Construct: envelope membranes purified from the lysate by sucrose centrifugation gradient; from tissue; host or cells: envelope membranes of chloroplasts from spinach leaves
Assay: MGDG synthase activity in envelope membrane fractions isolated from spinach chloroplasts
Format: biochemical
Conditions: Table 1, obtained in the same manner as FIG. 4; read-out: Inhibitory effect on MGDG synthesis in isolated spinach chloroplast envelope membranes
pIC50: −log10 of the molar value. Structures can show the parent of a compound that is named as a salt.
Recorded pIC50 values for a group of molecules are listed next.
measuredQuantity: pIC50

>>> print(df.to_string())
                                   molecule  recordedmeasurement
0  O=C(OCCN(Cc1ccccc1)Cc1ccc(Cl)cc1)N1CCC(n2c(=O)[nH]c3ccccc32)CC1                 5.10
1  C[C@@H](COC(=O)N1CCC(n2c(=O)[nH]c3ccccc32)CC1)N(Cc1ccccc1)Cc1ccc([N+](=O)[O-])cc1 [Compound 36, hydrochloride]                 4.30
2  Cn1c(CN(CCCOC(=O)N2CCC(n3c(=O)[nH]c4ccccc43)CC2)Cc2ccccc2)cc2ccccc21 [Compound 72, hydrochloride]                 4.30
3  CC(COC(=O)N1CCC(n2c(=O)[nH]c3ccccc32)CC1)N(CCCOCc1ccccc1)Cc1ccccc1 (stereo not shown)                 4.40
4  O=C(OC[C@@H](Cc1ccccc1)N(Cc1ccccc1)Cc1ccccc1)N1CCC(n2c(=O)[nH]c3ccccc32)CC1                 5.22
5  O=C(OCCN(Cc1ccccc1)Cc1ccccc1)N1CCC(n2c(=O)[nH]c3ccccc32)CC1                 4.82

---

Recorded IC50 values for a group of molecules are listed next.
Target: MGDG synthase in isolated spinach chloroplast envelope membranes (Spinacia oleracea, UniProt Q9SM44)
Construct: envelope membranes purified from the lysate by sucrose centrifugation gradient; from tissue; host or cells: envelope membranes of chloroplasts from spinach leaves
Assay: MGDG synthase activity in envelope membrane fractions isolated from spinach chloroplasts
Format: biochemical
Conditions: Table 1, obtained in the same manner as FIG. 4; read-out: Inhibitory effect on MGDG synthesis in isolated spinach chloroplast envelope membranes
Structures can show the parent of a compound that is named as a salt.
measuredQuantity: IC50

In [3]: df
Out[3]:
                                   molecule  measuredquantity  recordedmeasurement
0  C[C@@H](COC(=O)N1CCC(n2c(=O)[nH]c3ccccc32)CC1)N(Cc1ccccc1)Cc1ccnc2ccccc12 [Compound 53, hydrochloride]              IC50                60 µM
1  O=C(OCCCN(Cc1ccccc1)Cc1ccc([N+](=O)[O-])cc1)N1CCC(n2c(=O)[nH]c3ccccc32)CC1 [Compound 38, hydrochloride]              IC50                15 µM
2  O=c1[nH]c2ccccc2n1C1CCN(C(=S)OCCN(Cc2ccccc2)Cc2ccccc2)CC1 [Compound 19]              IC50                20 µM
3  C[C@@H](COC(=O)N1CCC(n2c(=O)[nH]c3ccccc32)CC1)N(Cc1ccccc1)Cc1ccccn1 [Compound 64, hydrochloride]              IC50                35 µM
4  O=C(OCCN(Cc1ccccc1)Cc1ccc(Br)cc1)N1CCC(n2c(=O)[nH]c3ccccc32)CC1 [Compound 40, hydrochloride]              IC50                15 µM

---

Recorded pIC50 values for a group of compounds are listed next.
Biological target: MGDG synthase in isolated spinach chloroplast envelope membranes (Spinacia oleracea)
Construct: envelope membranes purified from the lysate by sucrose centrifugation gradient; from tissue; host or cells: envelope membranes of chloroplasts from spinach leaves
Test: MGDG synthase activity in envelope membrane fractions isolated from spinach chloroplasts
Format: biochemical
Conditions: Table 1, obtained in the same manner as FIG. 4; read-out: Inhibitory effect on MGDG synthesis in isolated spinach chloroplast envelope membranes
pIC50: −log10 of the molar value.
measuredQuantity: pIC50

                                smilesinput  measuredquantity  recordedmeasurement
0  O=c1[nH]c2ccccc2n1C1CCN(C(=S)OCCOCc2ccccc2)CC1             pIC50         3.30 to 4.00
1  CN(CCOC(=O)N1CCC(n2c(=O)[nH]c3ccccc32)CC1)Cc1ccccc1             pIC50         3.30 to 4.00
2  O=C(OCCCN(Cc1ccccc1)Cc1ccoc1)N1CCC(n2c(=O)[nH]c3ccccc32)CC1             pIC50                 4.30

---

Target: MGDG synthase in isolated spinach chloroplast envelope membranes (Spinacia oleracea)
Construct: envelope membranes purified from the lysate by sucrose centrifugation gradient; from tissue; host or cells: envelope membranes of chloroplasts from spinach leaves
Sequence (Q9SM44 99-522): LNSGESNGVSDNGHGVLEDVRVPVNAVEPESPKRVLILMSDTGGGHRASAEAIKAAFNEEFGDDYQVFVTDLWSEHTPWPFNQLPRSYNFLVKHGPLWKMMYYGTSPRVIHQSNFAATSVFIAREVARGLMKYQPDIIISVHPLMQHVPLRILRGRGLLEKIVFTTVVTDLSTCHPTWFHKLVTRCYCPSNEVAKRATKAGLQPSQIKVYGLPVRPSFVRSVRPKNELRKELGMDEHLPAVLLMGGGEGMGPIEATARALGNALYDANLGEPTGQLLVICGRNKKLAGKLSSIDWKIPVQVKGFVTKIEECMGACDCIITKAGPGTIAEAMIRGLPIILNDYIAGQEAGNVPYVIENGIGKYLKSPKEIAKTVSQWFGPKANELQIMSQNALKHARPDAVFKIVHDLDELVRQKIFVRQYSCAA
Assay: MGDG synthase activity in envelope membrane fractions isolated from spinach chloroplasts
Format: biochemical
Details: Table 1, obtained in the same manner as FIG. 4; read-out: Inhibitory effect on MGDG synthesis in isolated spinach chloroplast envelope membranes
pIC50: −log10 of the molar value. Structures can show the parent of a compound that is named as a salt.
Recorded pIC50 values for a group of compounds are listed next.
measuredQuantity: pIC50

In [3]: df
Out[3]:
                                   compound  recordedmeasurement
0  C[C@@H](COC(=O)Nc1ccc(-n2c(=O)[nH]c3ccccc32)cc1)N(Cc1ccccc1)Cc1ccccc1                 4.35
1  CC(CCOC(=O)N1CCC(n2c(=O)[nH]c3ccccc32)CC1)N(Cc1ccccc1)Cc1ccccc1 (centres unmarked)                 4.46
2  O=C(OCCN(Cc1ccccc1)Cc1ccc(OCc2ccccc2)cc1)N1CCC(n2c(=O)[nH]c3ccccc32)CC1                 4.52
3  C[C@@H](COC(=O)N1CCC(n2c(=O)[nH]c3ccccc32)CC1)N(Cc1ccccc1)Cc1cccs1 [Compound 63, hydrochloride]                 4.52
4  O=C(OCCC(c1ccccc1)c1ccccc1)N1CCC(n2c(=O)[nH]c3ccccc32)CC1                 4.35
